Where do the numbers come from? From patent US8987195B2.

- tested-system: HCV NS3/4A protease genotype 1b (Hepatitis C virus genotype 1b)
- experiment-description: HCV NS3/4A protease time-resolved fluorescence (TRF) assay, Ki against genotype 1b
- Type: biochemical
- stated-conditions: IC50 [gt-1b] (nM), NS3/4A genotype 1b, enzyme 0.2 nM
measure-name: IC50 (nM)
Could you give me the number in nM? Just the number is fine.

As a guide, the following entries are already answered.
>>> measured("COc1ccc2nc(C(C)C)c3c(c2c1)CC[C@]1(C[C@H]2C(=O)N[C@]4(C(=O)NS(=O)(=O)C5(C)CC5)C[C@H]4/C=C\\CCCCC[C@H](NC(=O)OCC4COC4)C(=O)N2C1)O3")
0.007
>>> measured("Cc1nc2cc(F)c(F)cc2c2c1O[C@]1(CC2)C[C@H]2C(=O)N[C@]3(C(=O)NS(=O)(=O)C4(C)CC4)C[C@H]3/C=C\\CCCCC[C@H](NC(=O)OCC3CCC3)C(=O)N2C1")
0.031
>>> measured("Cc1nc2cc(F)c(F)cc2c2c1O[C@]1(CC2)C[C@H]2C(=O)N[C@]3(C(=O)NS(=O)(=O)C4(C)CC4)C[C@H]3/C=C\\CCCCC[C@H](NC(=O)OCC3CC3)C(=O)N2C1")
0.019
>>> measured("COc1ccc2nc(C(F)(F)F)c3c(c2c1)[C@H](O)C[C@]1(C[C@H]2C(=O)N[C@]4(C(=O)NS(=O)(=O)C5(C)CC5)C[C@H]4/C=C\\CCCCC[C@H](NC(=O)OC(C)(C)C)C(=O)N2C1)O3")
0.012
>>> measured("CC(C)(C)OC(=O)N[C@H]1CCCCC/C=C\\[C@@H]2C[C@@]2(C(=O)NS(=O)(=O)C2(C)CC2)NC(=O)[C@@H]2C[C@]3(CCc4c(c(C(F)(F)F)nc5ccc(OCCN6CCCCC6)cc45)O3)CN2C1=O")
0.021

Ask: Tell us which IC50 value is on record for CCNC(=O)N[C@H]1CCCCC/C=C\[C@@H]2C[C@@]2(C(=O)NS(=O)(=O)C2(C)CC2)NC(=O)[C@@H]2C[C@]3(CCc4c(c(C)nc5ccccc45)O3)CN2C1=O
Reply: 0.015

Ask: Please indicate IC50 recorded for Cc1nc2ccc(OC(F)(F)F)cc2c2c1O[C@]1(CC2)C[C@H]2C(=O)N[C@]3(C(=O)NS(=O)(=O)C4(C)CC4)C[C@H]3/C=C\CCCCC[C@H](NC(=O)OC3(C)CCCC3)C(=O)N2C1
Reply: 0.03
